# TARGET DESC: BACE1 (Homo sapiens (Human), UniProt P56817)
# Sequence (P56817 46-501): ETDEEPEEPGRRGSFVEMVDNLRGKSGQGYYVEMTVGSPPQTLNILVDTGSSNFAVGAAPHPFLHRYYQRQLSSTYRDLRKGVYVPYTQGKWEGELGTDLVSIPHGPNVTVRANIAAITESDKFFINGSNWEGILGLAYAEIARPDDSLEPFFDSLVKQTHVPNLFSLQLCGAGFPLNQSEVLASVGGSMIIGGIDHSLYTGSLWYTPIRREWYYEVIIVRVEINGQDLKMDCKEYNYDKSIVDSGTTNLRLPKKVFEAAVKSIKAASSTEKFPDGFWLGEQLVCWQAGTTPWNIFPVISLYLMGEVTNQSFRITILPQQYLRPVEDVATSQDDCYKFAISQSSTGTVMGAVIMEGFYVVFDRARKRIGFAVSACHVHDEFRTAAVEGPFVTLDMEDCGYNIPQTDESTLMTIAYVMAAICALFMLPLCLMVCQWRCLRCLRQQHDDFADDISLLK
# METHOD NOTES: In vitro enzymatic BACE1 FRET assay
# Format: biochemical
# TEST CONTEXT: read-out: BACE1 Enzyme IC50
MEASURE: log10 of IC50 (log10 of the value in nM)
Hi team, quick reminder: these entries are log10 of IC50 (nM).

Known results for compounds:
COMPOUND	TARGET DESC	log10 of IC50
CN1C(N)=N[C@](C)(c2cc(/C=C(\F)c3ccc(C#N)cn3)ccc2F)C2(CC2)S1(=O)=O [Example 127]	BACE1 (Homo sapiens (Human), UniProt P56817)	0.78
CN1C(N)=N[C@](C)(c2cc(/C=C(\F)c3ccc(Br)cn3)cc(F)c2F)CS1(=O)=O [Example 105]	BACE1 (Homo sapiens (Human), UniProt P56817)	1.08
C#CCOc1cnc(/C(F)=C/c2ccc(F)c([C@@]3(C)N=C(N)N(C)S(=O)(=O)C3(C)C)c2)cn1 [Example 183]	BACE1 (Homo sapiens (Human), UniProt P56817)	1.11
Cc1nnc(COc2cnc(/C(F)=C/c3ccc(F)c([C@]4(C)CS(=O)(=O)N(C)C(N)=N4)c3)cn2)o1 [Example 173]	BACE1 (Homo sapiens (Human), UniProt P56817)	0.85
CC#CCOc1cnc(/C(F)=C/c2ccc(F)c([C@]3(CF)CS(=O)(=O)C(C)(C)C(N)=N3)c2)cn1 [Example 194]	BACE1 (Homo sapiens (Human), UniProt P56817)	0.85

[ask] Tell me log10 of IC50 of CC1(C)C(N)=N[C@](C)(c2cc(/C=C(\F)c3cc4c(cn3)OCCO4)ccc2F)[C@@H](F)S1(=O)=O (single isomer, unassigned) [Example 213] when tested on BACE1 (Homo sapiens (Human), UniProt P56817).
[reply] 2.80

[ask] Give reported log10 of IC50 for Cc1noc(COc2cnc(/C(F)=C/c3ccc(F)c([C@]4(C)CS(=O)(=O)C(C)(C)C(N)=N4)c3)cn2)n1 [Example 175] (BACE1 (Homo sapiens (Human), UniProt P56817))
[reply] 1.94

[ask] State, for BACE1 (Homo sapiens (Human), UniProt P56817), measured log10 of IC50 of the compound listed here: CC1(C)C(N)=N[C@](C)(c2cc(/C=C(\F)c3ccc(C(F)(F)F)cn3)ccc2F)CS1(=O)=O [Example 265]
[reply] 0.90

[ask] Specify log10 of IC50 for C=CCOc1cnc(/C(F)=C/c2ccc(F)c([C@@]3(C)N=C(N)[C@@]4(CF)CC[C@@H]3S4(=O)=O)c2)cn1 [Example 125] , system BACE1 (Homo sapiens (Human), UniProt P56817).
[reply] 1.68

[ask] Specify log10 of IC50 for CN1C(N)=N[C@](C)(c2cc(/C=C(\F)c3ccc4c(c3)OCCO4)ccc2F)CS1(=O)=O [Example 196] , system BACE1 (Homo sapiens (Human), UniProt P56817).
[reply] 2.77

[ask] Give log10 of IC50 for CC1(C)C(N)=N[C@](C)(c2cc(/C=C(\F)c3cc4c(cn3)OCCO4)ccc2F)[C@H](F)S1(=O)=O (single isomer, unassigned) [Example 214] tested on BACE1 (Homo sapiens (Human), UniProt P56817).
[reply] 2.35

[ask] State the measured log10 of IC50 (BACE1 (Homo sapiens (Human), UniProt P56817)) of CC1(C)C(N)=N[C@@]2(c3ccc(/C=C(\F)c4ccc(C#N)cn4)cc3F)COC[C@H]2S1(=O)=O [Example 261]
[reply] 0.30

Origin of the recorded values: patent US11021493B2
